Provide the reported MIC of each item.
System: Salmonella typhimurium
test details: Antibacterial activity against Salmonella Typhimurium isolate
Assay type: functional, Salmonella enterica subsp. enterica serovar Typhimurium
measurement context: Salmonella enterica
Write the number in µg/mL without appending the unit.

Entry OCc1ccc2cc1OCC#C/C=C\C#CCO2 has what MIC? 128

Entry C1#CCOc2ccc(CNc3ccccc3)c(c2)OCC#C/C=C\1 has what MIC? 16

Entry CN(C)[C@@H]1C(O)=C(C(N)=O)C(=O)[C@@]2(O)C(O)=C3C(=O)c4c(O)cccc4[C@@](C)(O)[C@H]3C[C@@H]12 [TETRACYCLINE] has what MIC? 0.5

Entry Brc1ccc(/N=C/c2ccc3cc2OCC#C/C=C\C#CCO3)cc1 has what MIC? 128

Entry Cc1ccc(/N=C/c2ccc3cc2OCC#C/C=C\C#CCO3)cc1 has what MIC? 128

Entry Cc1ccc(NCc2ccc3cc2OCC#C/C=C\C#CCO3)cc1 has what MIC? 128

Entry Clc1ccc(NCc2ccc3cc2OCC#C/C=C\C#CCO3)cc1 has what MIC? 512

Entry O=Cc1ccc2cc1OCC#C/C=C\C#CCO2 has what MIC? 128

Entry C1#CCOc2ccc(/C=N/c3ccccc3)c(c2)OCC#C/C=C\1 has what MIC? 64

Entry C1#CCOc2cccc(c2)OCC#C/C=C\1 has what MIC? 8
